Test: self-splicing fitness, log relative to wild type (ln ratio); higher = more splicing; Tetrahymena group I intron in knt gene, E. coli kanamycin selection, DiMSum; sequences stand for … in CUCUCU…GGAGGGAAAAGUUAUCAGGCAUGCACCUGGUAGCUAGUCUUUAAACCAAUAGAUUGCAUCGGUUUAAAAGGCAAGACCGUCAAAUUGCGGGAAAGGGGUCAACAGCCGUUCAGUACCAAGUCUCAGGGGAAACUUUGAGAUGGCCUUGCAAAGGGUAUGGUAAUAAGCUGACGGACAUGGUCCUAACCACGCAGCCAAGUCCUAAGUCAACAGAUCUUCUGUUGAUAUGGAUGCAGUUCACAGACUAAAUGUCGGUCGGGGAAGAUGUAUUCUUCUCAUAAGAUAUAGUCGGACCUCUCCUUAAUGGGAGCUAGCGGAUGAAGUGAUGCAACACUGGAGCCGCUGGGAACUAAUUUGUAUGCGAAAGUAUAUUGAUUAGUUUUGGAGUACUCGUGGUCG;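 further: selection with 25 µg/mL kanamycin versus none on LB agar overnight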
Conditions: 37 °C
The following sequences are listed with their measured self-splicing fitness (ln) values.

{"Biopolymer Sequence": "GCCGAGCAAUAUUACGAGAU", "self-splicing fitness (ln)": -1.66}
{"Biopolymer Sequence": "AACGAGCAAUAUUACGAAGC", "self-splicing fitness (ln)": -1.91}
{"Biopolymer Sequence": "AGGAAGCAAUAUUACGCAAA", "self-splicing fitness (ln)": -1.23}
{"Biopolymer Sequence": "CAACAGCAAUAUUACGUUCU", "self-splicing fitness (ln)": -0.92}
{"Biopolymer Sequence": "GAGGAGCAAUAUUACGCAGU", "self-splicing fitness (ln)": -3.66}
{"Biopolymer Sequence": "GCCAAGCAAUAUUACGCGCC", "self-splicing fitness (ln)": -2.56}
{"Biopolymer Sequence": "GCCGAGCAAUAUUACGGGAG", "self-splicing fitness (ln)": -2.18}
{"Biopolymer Sequence": "AAAUAGCAAUAUUACGAACG", "self-splicing fitness (ln)": -0.384}
{"Biopolymer Sequence": "UGUUAGCAAUAUUACGCCGG", "self-splicing fitness (ln)": -0.696}
{"Biopolymer Sequence": "UGAGAGCAAUAUUACGCCAA", "self-splicing fitness (ln)": -1.98}
{"Biopolymer Sequence": "GGGUAGCAAUAUUACGCUUU", "self-splicing fitness (ln)": -0.688}
{"Biopolymer Sequence": "GGAUAGCAAUAUUACGUACG", "self-splicing fitness (ln)": -0.97}
{"Biopolymer Sequence": "GAUUAGCAAUAUUACGCCUU", "self-splicing fitness (ln)": -0.304}
{"Biopolymer Sequence": "AACUAGCAAUAUUACGUGGA", "self-splicing fitness (ln)": -1.61}
{"Biopolymer Sequence": "UCCGAGCAAUAUUACGAUCA", "self-splicing fitness (ln)": -1.26}
{"Biopolymer Sequence": "UGGAAGCAAUAUUACGCUUU", "self-splicing fitness (ln)": -2.64}
{"Biopolymer Sequence": "UGGAAGCAAUAUUACGCGUU", "self-splicing fitness (ln)": -3.03}
{"Biopolymer Sequence": "UAACAGCAAUAUUACGGAGG", "self-splicing fitness (ln)": -1.87}
{"Biopolymer Sequence": "GUCUAGCAAUAUUACGACGG", "self-splicing fitness (ln)": -2.45}
{"Biopolymer Sequence": "UUCUAGCAAUAUUACGGACA", "self-splicing fitness (ln)": 0.211}
{"Biopolymer Sequence": "ACCAAGCAAUAUUACGUAAU", "self-splicing fitness (ln)": -0.681}
{"Biopolymer Sequence": "CCUGAGCAAUAUUACGCUGA", "self-splicing fitness (ln)": -2.56}
{"Biopolymer Sequence": "UUAGAGCAAUAUUACGGCAC", "self-splicing fitness (ln)": -1.95}
{"Biopolymer Sequence": "CCGUAGCAAUAUUACGAGGG", "self-splicing fitness (ln)": -0.352}
{"Biopolymer Sequence": "CCGUAGCAAUAUUACGCGCG", "self-splicing fitness (ln)": -0.999}
{"Biopolymer Sequence": "CUAAAGCAAUAUUACGUGCU", "self-splicing fitness (ln)": -2.75}
{"Biopolymer Sequence": "AGCCAGCAAUAUUACGAGGU", "self-splicing fitness (ln)": -1.93}
{"Biopolymer Sequence": "AAUUAGCAAUAUUACGUCGC", "self-splicing fitness (ln)": -1.38}
{"Biopolymer Sequence": "CGCUAGCAAUAUUACGAGCG", "self-splicing fitness (ln)": -2.69}
{"Biopolymer Sequence": "AUGAAGCAAUAUUACGCAAC", "self-splicing fitness (ln)": -1.13}
{"Biopolymer Sequence": "AAUAAGCAAUAUUACGGAAC", "self-splicing fitness (ln)": -2.16}
{"Biopolymer Sequence": "CGUUAGCAAUAUUACGUGGC", "self-splicing fitness (ln)": -2.75}
{"Biopolymer Sequence": "AAGUAGCAAUAUUACGAUAG", "self-splicing fitness (ln)": -2.64}
{"Biopolymer Sequence": "CAAAAGCAAUAUUACGAAUG", "self-splicing fitness (ln)": -0.723}
{"Biopolymer Sequence": "CCGGAGCAAUAUUACGUCGG", "self-splicing fitness (ln)": -2.82}
{"Biopolymer Sequence": "GUUUAGCAAUAUUACGCCUG", "self-splicing fitness (ln)": -1.39}
{"Biopolymer Sequence": "UAGUAGCAAUAUUACGUCUU", "self-splicing fitness (ln)": -0.388}
{"Biopolymer Sequence": "GGAAAGCAAUAUUACGGGGU", "self-splicing fitness (ln)": -3}
{"Biopolymer Sequence": "UGUGAGCAAUAUUACGGGCA", "self-splicing fitness (ln)": -0.176}
{"Biopolymer Sequence": "CCUGAGCAAUAUUACGGCUG", "self-splicing fitness (ln)": -1.76}
{"Biopolymer Sequence": "GACAAGCAAUAUUACGAAAU", "self-splicing fitness (ln)": -0.766}
{"Biopolymer Sequence": "GUCUAGCAAUAUUACGUUCU", "self-splicing fitness (ln)": -0.247}
{"Biopolymer Sequence": "GUCCAGCAAUAUUACGACUG", "self-splicing fitness (ln)": -1.86}
{"Biopolymer Sequence": "GGAAAGCAAUAUUACGACUU", "self-splicing fitness (ln)": -0.0565}
{"Biopolymer Sequence": "CCCUAGCAAUAUUACGGAGC", "self-splicing fitness (ln)": -2.22}
{"Biopolymer Sequence": "ACACAGCAAUAUUACGGAAA", "self-splicing fitness (ln)": -2.5}
{"Biopolymer Sequence": "GACUAGCAAUAUUACGUACC", "self-splicing fitness (ln)": -0.961}
{"Biopolymer Sequence": "CCCCAGCAAUAUUACGAGAU", "self-splicing fitness (ln)": -2.3}
{"Biopolymer Sequence": "GAGGAGCAAUAUUACGUUAC", "self-splicing fitness (ln)": -3.09}
{"Biopolymer Sequence": "UCGUAGCAAUAUUACGAGGU", "self-splicing fitness (ln)": -2.06}
{"Biopolymer Sequence": "UGCUAGCAAUAUUACGCCAG", "self-splicing fitness (ln)": -2.17}
{"Biopolymer Sequence": "UCAUAGCAAUAUUACGCCAU", "self-splicing fitness (ln)": -1.49}
{"Biopolymer Sequence": "AAAAAGCAAUAUUACGGCAG", "self-splicing fitness (ln)": -0.434}
{"Biopolymer Sequence": "CACUAGCAAUAUUACGCGAG", "self-splicing fitness (ln)": -1.79}
{"Biopolymer Sequence": "UUAAAGCAAUAUUACGAGCC", "self-splicing fitness (ln)": -1.42}
{"Biopolymer Sequence": "GACCAGCAAUAUUACGAUUG", "self-splicing fitness (ln)": -1.08}
{"Biopolymer Sequence": "UGAUAGCAAUAUUACGUCGA", "self-splicing fitness (ln)": -0.847}
{"Biopolymer Sequence": "CACUAGCAAUAUUACGAGGC", "self-splicing fitness (ln)": -2.38}
{"Biopolymer Sequence": "AAGAAGCAAUAUUACGUCAC", "self-splicing fitness (ln)": -3}
{"Biopolymer Sequence": "CCAAAGCAAUAUUACGGCCU", "self-splicing fitness (ln)": -3.33}
{"Biopolymer Sequence": "GGACAGCAAUAUUACGCGUG", "self-splicing fitness (ln)": -0.234}
{"Biopolymer Sequence": "GAUCAGCAAUAUUACGGCGA", "self-splicing fitness (ln)": -0.214}
{"Biopolymer Sequence": "UACGAGCAAUAUUACGCAGG", "self-splicing fitness (ln)": -2.64}
{"Biopolymer Sequence": "UUUAAGCAAUAUUACGGAUG", "self-splicing fitness (ln)": -0.852}
{"Biopolymer Sequence": "GCCCAGCAAUAUUACGUGCG", "self-splicing fitness (ln)": -1.71}
{"Biopolymer Sequence": "GUGAAGCAAUAUUACGCGUC", "self-splicing fitness (ln)": -0.692}
{"Biopolymer Sequence": "AAAGAGCAAUAUUACGUUCA", "self-splicing fitness (ln)": -0.639}
